system: Hs-578T; assay: NCI tumour cell line growth inhibition, 48 h
Calls of active or inactive are those of the source. Rule as the data show it: active = GI50 up to about 1.1 µM and inactive = higher.
metric: GI50

> print(dat)
                                   compound  metric       recorded.value
1  Cc1cc2c(cc1C)[n+]([O-])c(C(=O)N1CCN(c3ccc([N+](=O)[O-])cc3)CC1)c(C)[n+]2[O-]    GI50   96.2 µM (inactive)
2  C/C(=N/O)c1cccc(Nc2nc3ccccc3c3[nH]c4ccccc4c23)c1    GI50   3.24 µM (inactive)
3  O=C(O[C@H]1CCN2C[C@H]3C[C@H](CN4C(=O)CCC[C@H]34)[C@@H]2C1)c1ccc(O)cc1    GI50  > 100 µM (inactive)
4  COC(=O)c1ccccc1C1CN=NC12Cc1ccc(C)cc1C2=O (centres undefined)    GI50   41.5 µM (inactive)
5        CCOC(=O)C(NC(=O)OC(C)(C)C)C(=O)OCC    GI50  > 100 µM (inactive)
6  COc1cc(OC2OC(CO)C(O)C(O)C2O)c2c(c1)O[C@@H]1[C@H](O)Oc3cc(OC)c(OC)cc3[C@]1(O)C2=O (some centres undefined)    GI50   > 25 µM (inactive)
7         C/C(=N/NC(=S)Nc1ccccc1Cl)c1ccccn1    GI50   8.53 µM (inactive)
8  O=C(CC1(O)C(=O)Nc2c(Cl)cc(Cl)cc21)c1ccc(Br)cc1Br (centres undefined)    GI50   0.0646 µM (active)

Input line: Quote GI50 with test system Hs-578T for COc1ccc(C2c3cc4c(cc3OC(N3CCOCC3)C2C)OCO4)c(OC)c1OC (centres undefined)
Output line: 2.88 µM (inactive)

###

test system: COLO 205; assay: NCI tumour cell line growth inhibition, 48 h
Active and inactive are the calls of the source. Rule as the data show it: active = GI50 up to about 1.1 µM and inactive = higher.
Could you please pick one outcome from this set? active, inactive

Input line: Dear colleague, could you share the recorded outcome for COc1cccc(/C=C2\CCC(CCN(C)C)(C3=CCCC3)C2=O)c1 (stereo not given) when you have a moment?
Output line: inactive

Input line: # lookup: test call for CN(CCN(C)C(=S)NN)C(=S)NN
Output line: inactive

Input line: GET /call?item= O=C(Nc1cccc(F)c1)c1cc2ccc(O)cc2o/c1=N\c1cccc(F)c1 returns the recorded outcome of this test.
Output line: inactive

Input line: Query: recorded result category for O=C1/C(=C/c2ccc(Cl)cc2)Sc2scc(-c3cccc([N+](=O)[O-])c3)[n+]21 in this test
Output line: inactive

Input line: What did the test return for CC1CCC[P+](Cc2ccccc2)(c2ccccc2)CC1 (stereo not given) ?
Output line: inactive

Input line: Recorded test outcome, item CCC1C2C=CC(CC2)N1S(=O)(=O)c1ccc(C)cc1 (stereo not given)
Output line: inactive

Input line: Give the logged outcome of this assay for the following compound: Fc1ccccc1C1SCC2=Nc3ccccc3CN21 (stereo not given)
Output line: inactive

###

tested on: Malme-3M; assay: NCI tumour cell line growth inhibition, 48 h
Activity calls are given as the source filed them. Cut-off read from the data, not from the text of the source: active = GI50 up to about 1.1 µM and inactive = higher.
metric: GI50

Please review the entries below; each comes with its answer.
molecule	recorded.value
CC(=O)Oc1c2oc3cc(O)c(O)cc3c2c(OC(C)=O)c2oc3cc(O)c(O)cc3c12	17.1 µM (inactive)
N#CC1=C(N2CCCC2)NC(=O)CC1=O	> 100 µM (inactive)

Input line: Please report the measured GI50 for CNC(=O)CN(CC(=O)O)C(=O)NC
Output line: > 100 µM (inactive)

Input line: Tell me its GI50 given CN(CCN(C)C(=S)NN)C(=S)NN as the entry.
Output line: > 100 µM (inactive)

Input line: Supply measured GI50 of COc1cc2c(cc1OC)C1=C(C=O)c3ccc(OC)c(OC)c3C(O)N1CC2 (centres undefined) in your reply.
Output line: 24.5 µM (inactive)

Input line: Specify reported GI50 for the molecule shown: CN(C)c1ccc(C=C2C(=O)OC(C)(C)OC2=O)cc1Br
Output line: > 100 µM (inactive)

Input line: For the molecule CN(CCCN=C=S)CCCN1c2ccccc2CCc2ccccc21 , give its measured GI50 value.
Output line: 1.99 µM (inactive)

Input line: // fetch GI50 given entry CC(C)CCCC(C)[C@H]1CC[C@H]2[C@@H]3CC[C@H]4C[C@@H](CCC=C(c5cc(Cl)c(O)c(C(=O)O)c5)c5cc(Cl)c(O)c(C(=O)O)c5)CC[C@]4(C)[C@H]3CC[C@]12C (some centres undefined)
Output line: > 50 µM (inactive)

Input line: # return recorded GI50 for entry CCOC(=O)[C@@H]1[C@@H](c2ccccc2)N(C)O[C@@]1(c1ccccc1)C(F)(F)F
Output line: 44.2 µM (inactive)

###

Overview of reported GI50 across a group of molecules:
system: 786-0; assay: NCI tumour cell line growth inhibition, 48 h
The source made the active and inactive calls. Cut-off read from the data, not from the text of the source: active = GI50 up to about 1.1 µM and inactive = higher.

Below: 3 molecules and their reported GI50.
> print(dat)
                                   molecule  assayed.target      recorded.value
1  O=S(=O)(/N=c1\[nH]c(-c2cc(O)c(O)c(O)c2)cs1)c1ccc(Cl)cc1Cl           786-0  19.7 µM (inactive)
2       O=C(CN1CCOCC1)NC1=Nc2ncccc2C(=O)NN1           786-0  > 10 µM (inactive)
3  COC(=O)C(/C(=N\O)C(=O)Nc1ccc(Br)cc1)c1nc2ccccc2nc1O (centres undefined)           786-0    31 µM (inactive)

Input line: Consider the molecule Cc1cn(CCCCC2=NCCCN2)c(=O)[nH]c1=O and give its recorded GI50.
Output line: > 23.9 µM (inactive)

Input line: Return the recorded GI50 value; entry: O=C(/C=C/c1ccc(O)c(O)c1O)OCCc1ccccc1
Output line: 16 µM (inactive)

Input line: Give recorded GI50. CC(O)CN1c2ccccc2Sc2ccc(Cl)cc21 (centres undefined)
Output line: > 10 µM (inactive)

###

Catalogue of compounds with associated GI50
tested on: XF498; assay: NCI tumour cell line growth inhibition, 48 h
The source made the active and inactive calls. Cut-off read from the data, not from the text of the source: active = GI50 up to about 1.1 µM and inactive = higher.

Answered examples (4):
> print(dat)
                                   compound  assayed.target       recorded.value
1  [C-]#[N+]C(C)(C)C[C@H]1CC(C)C2CCC(C)C3([N+]#[C-])CCC(=C)C1[C@H]23 (stereo not given in full)           XF498   2.62 µM (inactive)
2  CC(=O)Oc1cc2c(cc1OC(C)=O)C1(C)CCC2(C)c2cc(OC(C)=O)c(OC(C)=O)cc21           XF498   11.4 µM (inactive)
3                 CNC(=O)CN(CC(=O)O)C(=O)NC           XF498  > 100 µM (inactive)
4                     O/N=C/c1ncccc1C1OCCO1           XF498  > 100 µM (inactive)

Input line: Give the value of GI50 reported for the following: O=C(CC1(O)C(=O)Nc2c(Cl)cc(Cl)cc21)c1ccc(Br)cc1Br (stereo not given)
Output line: 11.6 µM (inactive)

Input line: Provide only the value of recorded GI50 for NNC(=O)N/N=C1\C(=O)N(c2nccs2)C(=O)C(=O)C1c1nc2ccccc2s1 (stereo not given)
Output line: > 100 µM (inactive)

Input line: Give the reported GI50 for this compound. CCOC(=O)c1nc2ccc(Cl)cc2c2c1Cc1ccccc1-2
Output line: > 100 µM (inactive)

Input line: Look up and report measured GI50 for this entry: CC(=O)OC1COC(N2C(=O)/C(=N\Nc3ccc([N+](=O)[O-])cc3)c3cc(Br)c([N+](=O)[O-])cc32)C(OC(C)=O)C1OC(C)=O (stereo not given)
Output line: 32.8 µM (inactive)

Input line: Identify measured GI50 associated with CC(=O)N(C)c1ccc2ncccc2c1[N+](=O)[O-]
Output line: > 100 µM (inactive)

Input line: Please indicate GI50 recorded for C=CC/N=C1/N=C(CC(=O)OCC)CS1
Output line: > 100 µM (inactive)

###

tested on: DMS-114; experiment: NCI tumour cell line growth inhibition, 48 h
The source made the active and inactive calls. No stated cut-off is given here; in the data, active = GI50 up to about 1.1 µM and inactive = higher.
# valid calls are t = active, f = inactive; nothing else

Examples with answers:
> print(dat)
                                    compound  assayed.target  class.assignment
 1  BrC(Br)=C1C(=C(Br)Br)C(Br)C1Br (stereo not given)         DMS-114                 t
 2    COc1ccc(NC(=O)c2cc(OC)c(OC)c(OC)c2)cc1         DMS-114                 f
 3                   CCn1cnnc1-c1nsc2ccccc12         DMS-114                 f
 4  O=c1n(Cc2ccccc2)c2ccccc2n1CC1CS1 (stereo not given)         DMS-114                 f
 5         CN(C)CCNC(=O)c1ccc2ccc3cccnc3c2n1         DMS-114                 f
 6  CCN(CC)/[N+]([O-])=N/OCC(C)O (stereo not given)         DMS-114                 f
 7  CN1CCC(O)C(CNC23CC4CC(CC(C4)C2)C3)C1 (stereo not given)         DMS-114                 f
 8   Cc1c2ccccc2c(C)c2c3c(ccc12)C(=O)C=CC3=O         DMS-114                 f
 9            N#CCN1CCOCCOCCN(CC#N)CCOCCOCC1         DMS-114                 f
10  CCCN(CCCCC(NC(C)=O)C(=O)NCc1ccccc1)C(=O)N(CCCl)N=O (stereo not given)         DMS-114                 f

Input line: Could you kindly confirm the outcome this assay logged for CCCN(CCCC(NC(C)=O)C(=O)NCc1ccccc1)C(=O)N(C)N=O (stereo not given) ?
Output line: f

Input line: What did this assay record as the result for Cc1c(Cl)cccc1NC(=O)C(=O)C(C(=O)c1ccccc1-c1ccccc1)C1OC(=O)c2ccccc21 (stereo not given) ?
Output line: f

Input line: Test call, this compound: COP(=O)(CC(=O)C1OC(C)(C)OC1C(O)COCc1ccccc1)OC (stereo not given)
Output line: f

Input line: Identify the outcome logged in this assay for the compound shown: O=S(=O)(Cc1ccccc1)SCc1ccccc1
Output line: f

Input line: Just curious, what result did COc1ccc(NC(=O)C(=O)Cc2ccc([N+](=O)[O-])c([N+](=O)[O-])c2CC(=O)C(=O)Nc2ccc(OC)cc2OC)c(OC)c1 get here?
Output line: f
